# TESTED_TARGET: T1, Bfl-1, Q16548
# T1 chain: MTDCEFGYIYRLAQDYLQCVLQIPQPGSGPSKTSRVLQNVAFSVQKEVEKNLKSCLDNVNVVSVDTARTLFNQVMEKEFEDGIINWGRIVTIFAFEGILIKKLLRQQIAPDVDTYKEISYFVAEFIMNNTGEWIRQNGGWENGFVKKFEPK
# MEASUREMENT_PROTOCOL: peptide SPOT array, c-Myc-tagged receptor at 1 uM or 100 nM, anti-c-Myc-Cy3
ASSAY_READOUT: SPOT signal as a fraction of Bim BH3's signal on the same receptor and array

Here's what some known entries look like.
Give the value of SPOT signal as a fraction of Bim BH3's signal on the same receptor and array reported for the following: SCMATVIHNPLKALGDQFYKEAIEHC [DPF3]
0.03

Give the value of SPOT signal as a fraction of Bim BH3's signal on the same receptor and array reported for the following: DNHKKKTVKMLEYLGKDVLHGVFNYL [CASP5]
0.19

Give the value of SPOT signal as a fraction of Bim BH3's signal on the same receptor and array reported for the following: NDDTPWIARTDDNLADELTAILSAPA [GBP6]
0.03

Give the value of SPOT signal as a fraction of Bim BH3's signal on the same receptor and array reported for the following: ACGDSVLARMLRELLDSLRRPQLRLW [SLC19A1]
0.33

Give the value of SPOT signal as a fraction of Bim BH3's signal on the same receptor and array reported for the following: SSLSDGLPVHLANIADELTQKKKMFK [AGBL2]
0.15

Continuing:
Give the value of SPOT signal as a fraction of Bim BH3's signal on the same receptor and array reported for the following: FGEYSGISENDILVGDDFWIPETSFI [ROS1]
0.04

Give the value of SPOT signal as a fraction of Bim BH3's signal on the same receptor and array reported for the following: ERLKGQLCDVDLIVGDQKFRAHKNVL [ZNF295]
0.07

Give the value of SPOT signal as a fraction of Bim BH3's signal on the same receptor and array reported for the following: MQTLSELAKSDQDMADRCLLVLHLEV [EXOC4]
0.04

Give the value of SPOT signal as a fraction of Bim BH3's signal on the same receptor and array reported for the following: AGYELLIQKFDSLYGDQIDMHRKFVV [ISOC1]
0.05

Give the value of SPOT signal as a fraction of Bim BH3's signal on the same receptor and array reported for the following: RAKASSLSEEDKHFADGLETDGTLQK
0.03

Give the value of SPOT signal as a fraction of Bim BH3's signal on the same receptor and array reported for the following: AELRLFLAQRLRWLCDSCPASRATCV [NBEAL2]
0.46

Give the value of SPOT signal as a fraction of Bim BH3's signal on the same receptor and array reported for the following: RAKASSLSEELKHFADGLETDGTLQK
0.04

Give the value of SPOT signal as a fraction of Bim BH3's signal on the same receptor and array reported for the following: QAGPVSSGLALRKLGDRVQLLNLLVT [CCDC57]
0.39

Give the value of SPOT signal as a fraction of Bim BH3's signal on the same receptor and array reported for the following: TGSLCEIATTLSFELDGFLWVKSGSV [CRB1]
0.03
